test system: MCF-7; assay: Growth inhibition of MCF-7 sensitive breast cancer cells (colony formation, crystal violet); format: cell-based, human; details: Homo sapiens, MCF7, 3 h, read-out: IC50 MCF-7 + plasmin, + plasmin (15 μg/ml)
metric: IC50

IC50 lookup needed for COc1cccc2c1C(=O)c1c(O)c3c(c(O)c1C2=O)C[C@@](O)(C(=O)CO)C[C@@H]3O[C@H]1C[C@H](N)[C@H](O)[C@H](C)O1 [Doxorubicin, reference compound] , thanks.
300 nM

* * *

The entries below are paired with their reported Cell growth inhibition IC50, DU-145.
test system: DU-145; experiment: Growth inhibition of DU-145 prostate cancer cells; format: cell-based; details: 24 h drug treatment; crystal violet

Check out these entries, answers already filled in.
{"molecule": "CCCCOC(=O)N1COC2C(C)OC(OC3CC(O)(C(=O)CO)Cc4c(O)c5c(c(O)c43)C(=O)c3c(OC)cccc3C5=O)CC21 (stereo not shown) [Doxaz Butyl Carbamate]", "data value": "−6.4 ± 0.02 log of molar concentrations"}
{"molecule": "CCCCOC(=O)Nc1ccc(COC(=O)N2COC3C(C)OC(OC4CC(O)(C(=O)CO)Cc5c(O)c6c(c(O)c54)C(=O)c4c(OC)cccc4C6=O)CC32)cc1 (stereo not shown)", "data value": "−6.3 ± 0.3 log of molar concentrations"}
{"molecule": "CCCCCOC(=O)Nc1ccc(COC(=O)N2COC3C(C)OC(OC4CC(O)(C(=O)CO)Cc5c(O)c6c(c(O)c54)C(=O)c4c(OC)cccc4C6=O)CC32)cc1 (stereo not shown)", "data value": "−6.7 ± 0.07 log of molar concentrations"}

Note: attention shifts to another entry.
Cell growth inhibition IC50, DU-145 lookup needed for CCCCCOC(=O)N1COC2C(C)OC(OC3CC(O)(C(=O)CO)Cc4c(O)c5c(c(O)c43)C(=O)c3c(OC)cccc3C5=O)CC21 (stereo not shown) [Doxaz Pentyl Carbamate] , thanks.
−6.0 ± 0.04 log of molar concentrations

* * *

Test system: MCF-7/Adr
Test: Growth inhibition of multidrug resistant MCF-7/Adr breast cancer cells (crystal violet)
Assay type: cell-based
Conditions: 24 h drug treatment; crystal violet
Procedure: In vitro Activity. […] This cell suspension was dispensed in 200 μL aliquots (1000 cells/well) into the inside wells of 96-well tissue culture plates. Outside wells contained 200 μL of media. […] A more thorough characterization of the growth inhibition of a variety of cancer cells as well as rat cardiomyocytes by Formula IV (aFK-PABC-Doxaz) was evaluated in comparison with inhibition of growth by Doxaz, Dox and aFK-PABC-Dox. […]
metric: Growth inhibition IC50, MCF-7/Adr, 24 h

Growth inhibition IC50, MCF-7/Adr, 24 h lookup needed for CCOC(=O)N1COC2C(C)OC(OC3CC(O)(C(=O)CO)Cc4c(O)c5c(c(O)c43)C(=O)c3c(OC)cccc3C5=O)CC21 (centres unmarked) [Doxaz Ethyl Carbamate] , thanks.
>−5 log of the molar concentration
